Tested on: SF-268 CNS
Assay: NCI tumour cell line growth inhibition, 48 h; in the data active means GI50 below about 0.43 µM; inactive means the rest
Mark one answer only. Choices: 1 (active), 0 (inactive)

Completed entries (count: 4):
molecule	target.or.system	label.value
CSc1nc(N)c2c(n1)NC(c1ccccc1)C1CCc3ccccc3C1=N2 (centres undefined)	SF-268 CNS	0
COC(=O)/C(=C\c1c(-c2ccccc2)[nH]c2ccccc12)S(C)(=O)=O	SF-268 CNS	0
CC1(C)CC(=O)c2c(ccc(C(=O)C[C@@H](N)CO)c2N)O1	SF-268 CNS	0
O=S(=O)(NCCO)c1cc[c]([Sb](=[O])([OH])[OH])cc1	SF-268 CNS	0

Call for entry `COc1ccc2nccc(/C=C/c3ccnc4ccc(OC)cc34)c2c1` : 0

Called result for COc1ccc(C(=O)OC2C(OC3C(O)COC(O[C@H]4C[C@H]5[C@@H]6CC=C7C[C@@H](O)CC[C@]7(C)[C@H]6CC[C@]5(C)[C@H]4[C@H](C)C(=O)CCC(C)C)C3OC(C)=O)OCC(O)C2O)cc1 (some centres undefined) 1

Hi team, can someone confirm the assay call for `CC1(C)N=C(N)N=C(N)N1c1ccc(Cl)c(Cl)c1` ? 1

Call for entry `COc1ccc(/C(=N/O)c2cc(OC)c(OC)c(OC)c2)c(OC)c1N` : 0

Dear all, I need the recorded test outcome for CCCCCSC1C2C(=O)C(Br)=CC13CCNc1c(O)c4c5c(c13)=[N+]2CCC=5C=N4 (centres undefined) , thank you. 0

What did the test return for `CCN(CC)c1ccc(/C=C/C=C(/C#N)C(N)=S)cc1` ? 0

Per the records of this test, what outcome belongs to `O=C(Nc1cccc(-n2cc(-c3ccncc3)c(-c3ccc(O)c(Cl)c3)n2)c1)c1ccc(Cl)c(Cl)c1` ? 0

What did the test return for `CNCCCn1c2c(c3ccc(F)cc3c1=O)C(=O)c1cc(OC)cnc1-2` ? 1

Can you look up the reported call for `Clc1ccc(N2CCC(N3CCCC3)CC2)cc1-c1nc2ccccc2[nH]1` for me? 0

# fetch the recorded call for `CNC(=O)c1cc2c(Oc3ccc(NC(=S)NC(=O)Cc4ccccc4)cc3F)ccnc2cc1OC` here 0

----------
Test system: HOP-18 NSCLC
Test: NCI tumour cell line growth inhibition, 48 h
reported.endpoint: TGI

Use the examples below as a reference point.
item.smiles	reported.endpoint	endpoint.value
O=C(Sc1sc(=S)sc1SC(=O)c1ccccc1)c1ccccc1	TGI	> 100 µM
COC[C@@H](N=CN1CCc2cc(OC)c(OC)cc2C1)C(C)(C)C	TGI	> 100 µM

Attention now shifts to the item below.
Dear colleague, please send me the reported TGI for `O=C1N[C@H]2[C@H](O)[C@H](O)[C@@H](O)[C@H](O)[C@@H]2c2cc3c(c(O)c21)OCO3` when you can. 0.653 µM

----------
System: SF-539 CNS
Assay: NCI tumour cell line growth inhibition, 48 h
reported.endpoint: TGI

compound	target.or.system	reported.endpoint	endpoint.value
Cc1[nH]c(=O)nc(N(CCO)/N=C/c2ccc(Cl)cc2)c1C(=O)Nc1ccc(Cl)cc1	SF-539 CNS	TGI	> 100 µM

State its TGI: `O=C(Sc1sc(=S)sc1SC(=O)c1ccccc1)c1ccccc1` > 100 µM

----------
Test system: COLO 205 colon
Assay: NCI tumour cell line growth inhibition, 48 h
Label satisfied when TGI is at or above 10 µM; anything below gets not satisfied.

A selection of reference data follows.
molecule	label.value
Cc1nnc([C@@]2(C)CC[C@H]3[C@@H](CCC4=CC(=O)CC[C@@]43C)[C@@H]2CC#N)o1	satisfied
NC(C(=O)OC(=O)c1ccccc1)C(=O)OC(=O)c1ccccc1	satisfied
CC(=O)N(C(C)=O)n1nc2c(n1)C(=O)c1ccccc1C2=O	satisfied
O=C(COc1ccc(-c2nc3cc(Cl)c(Cl)cc3[nH]2)cc1)N=Nc1c(O)[nH]c2ccccc12	satisfied
Cc1cccc(C(=O)O)c1CC1NCCC2c3ccccc3NC12 (configuration not stated)	satisfied

Tell me whether TGI is at least 10 µM here: `Cc1cc(C)c(C(=O)/C=C/c2ccccc2)c(C)c1` satisfied

Could you verify whether the entry `CN(C)CCOc1ccc(-c2cc(-c3ccc4c(c3)CC/C4=N\O)c(-c3ccncc3)o2)cc1` shows TGI of no less than 10 µM? not satisfied

Given `C#CC(=O)OCC#CCOC(=O)C#C` , state whether its TGI is at least 10 µM. satisfied

Exam item: decide whether the reported TGI for `CC(=O)OC(=C(C#N)C#N)c1nccnc1C(C)=O` is at least 10 µM. satisfied

Quick check, TGI >= 10 µM? `CS/C=C\C(=O)O[C@H]1C[C@@H]2[C@@H](O)c3occ(C)c3C[C@]2(C)[C@@H](C)C1` satisfied

Could you verify whether the entry C/C(=C1\C(=O)C(c2ccccc2)N(c2ccccc2)C1=O)c1ccc(Cl)cc1 (configuration not stated) shows TGI of no less than 10 µM? satisfied

Entry `O=C1c2c(c3c4ccccc4[nH]c3c3[nH]c4ccccc4c23)C(=O)N1Cc1ccccc1` : is its TGI no less than 10 µM? not satisfied

Given the entry `O=c1c2c3c(sc2nc2n1N=C(c1ccc([N+](=O)[O-])cc1)CS2)CCCC3` , answer whether its TGI meets or surpasses 10 µM. satisfied

Say whether `NC(=O)CNC(=O)[C@@H]1C[C@@H](OCCC(=O)O)CN1C(=O)OCc1ccccc1` shows TGI of 10 µM or more. satisfied

Hi, just wondering whether `CN(C)c1ccc(C(=C2C=CC(=[N+](C)C)C=C2)c2ccccc2Cl)cc1` shows TGI of 10 µM or higher. not satisfied

Quick check: does `Cc1c(N=NN(C)C)cc[n+]([O-])c1C` have TGI greater than or equal to 10 µM? satisfied

Check this molecule for TGI at or above 10 µM: `CCN(CC)CCC(=O)/C=C/c1ccc(C)cc1` satisfied

----------
Listed here are molecules together with their documented TGI.
System: ACHN renal
Assay: NCI tumour cell line growth inhibition, 48 h
Numbers only here, please. The scale is µM.

item.smiles	TGI (µM)
C[C@]12CC[C@@H]3c4ccc(O)cc4CC[C@H]3[C@@H]1CC[C@@H]2NS(=O)(=O)c1ccc2ccccc2c1	10.5

Determine its reported TGI: `O[C@H]1[C@H](O)[C@@H](Cn2nnc(-c3ccccc3)c2-c2ccccc2)OCO[C@@H]1Cn1nnc(-c2ccccc2)c1-c1ccccc1` 13.6

----------
Known TGI of a selection of molecules
Test system: MOLT-4 leukemia
Experiment: NCI tumour cell line growth inhibition, 48 h

# return recorded TGI for entry `O=c1c2c3c(sc2nc2n1N=C(c1ccc([N+](=O)[O-])cc1)CS2)CCCC3` > 100 µM

Provide only the value of recorded TGI for `CC1=C/C(=C2/N=C(N(C)C)SS2)C(C)=N1` > 100 µM

Report TGI, nothing else, for this molecule: `Cc1cc(NS(=O)(=O)c2ccc(Nc3c4ccccc4nc4c(C(=O)Nc5ccc(S(=O)(=O)N=C(N)N)cc5)ccc(Cl)c34)cc2)no1` 67.3 µM

Name the recorded TGI of the molecule listed here: `Cc1ccc(NC(=O)/C(=N\NC(N)=O)c2c(O)c3ccccc3[nH]c2=O)cc1` > 100 µM

// fetch TGI given entry CC(OC(=O)N(N(CCCl)S(C)(=O)=O)S(C)(=O)=O)c1ccc([N+](=O)[O-])cc1 (stereo not drawn) > 100 µM

----------
Tested on: HCC-2998 colon
Assay: NCI tumour cell line growth inhibition, 48 h
Measured GI50 values are reported for all entries that follow.

Previously resolved entries follow.
compound	target.or.system	endpoint.value
CC1(C)N=C(N)N=C(N)N1c1ccc(Cl)c(Cl)c1	HCC-2998 colon	0.508 µM
COC(=O)[C@@H](OC)[C@@H]1Cc2cc3cc(OC4CC(OC5CC(O)C(O)C(C)O5)C(O)C(C)O4)c(C)c(O)c3c(O)c2C(=O)[C@H]1OC1CC(OC2CC(OC3CC(C)(O)C(O)C(C)O3)C(O)C(C)O2)C(O)C(C)O1 (some centres undefined)	HCC-2998 colon	0.0365 µM
CN(C)c1ccc(C(=C2C=CC(=[N+](C)C)C=C2)c2ccccc2Cl)cc1	HCC-2998 colon	0.354 µM
Oc1ccccc1C=Nc1ccccc1N=Cc1ccccc1O.[Cu+2]	HCC-2998 colon	7.95 µM
CCOC(=O)c1nc2cc(C(F)(F)F)ccc2[n+]([O-])c1C	HCC-2998 colon	> 100 µM

Give GI50 only, for `N=C(N)SCc1ccc([N+](=O)[O-])cc1[N+](=O)[O-]` , using HCC-2998 colon data. 6.05 µM

Enter measured GI50, system HCC-2998 colon, for the compound shown: `CC(C)(C)OC(=O)NCCCCCCCCCCn1c2c(c3ccccc3c1=O)C(=O)c1ccccc1-2` > 100 µM

Send back HCC-2998 colon GI50 of `COC(=O)/C(=C\c1c(-c2ccccc2)[nH]c2ccccc12)S(C)(=O)=O` only. 8.78 µM

Under HCC-2998 colon: report GI50 of `Cc1cc(S(N)(=O)=O)c(S/C(=N\Nc2ccc([N+](=O)[O-])cc2)c2ccc3ccccc3c2)cc1Cl` . 14.7 µM

Tell me its GI50 on HCC-2998 colon: `CN(C)CCNc1nc2ccccc2c2occc12` 36 µM

Write down measured GI50 (HCC-2998 colon) for this compound. `COc1ccc(Oc2cc(NCCC(F)(F)F)c3ncc(-c4ccc(C(=O)NC5CC5)c(C)c4)n3n2)c(F)c1F` 12.3 µM

Write down measured GI50 (HCC-2998 colon) for this compound. `CCN(CC)c1ccc(/C=C/C=C(/C#N)C(N)=S)cc1` 6.46 µM

Provide the reported GI50 (system: HCC-2998 colon) for `COc1ccc(-c2nnc(Nc3nc(O)c(C4=c5cc(F)ccc5=NC4=O)s3)o2)cc1` 84.3 µM

Given `O=C(COc1ccc(-c2nc3cc(Cl)c(Cl)cc3[nH]2)cc1)N=Nc1c(O)[nH]c2ccccc12` , report its GI50 on HCC-2998 colon. 1.35 µM
